- Assayed Target: human muscarinic M1 receptor (Homo sapiens)
- Sequence (P11229 whole entry): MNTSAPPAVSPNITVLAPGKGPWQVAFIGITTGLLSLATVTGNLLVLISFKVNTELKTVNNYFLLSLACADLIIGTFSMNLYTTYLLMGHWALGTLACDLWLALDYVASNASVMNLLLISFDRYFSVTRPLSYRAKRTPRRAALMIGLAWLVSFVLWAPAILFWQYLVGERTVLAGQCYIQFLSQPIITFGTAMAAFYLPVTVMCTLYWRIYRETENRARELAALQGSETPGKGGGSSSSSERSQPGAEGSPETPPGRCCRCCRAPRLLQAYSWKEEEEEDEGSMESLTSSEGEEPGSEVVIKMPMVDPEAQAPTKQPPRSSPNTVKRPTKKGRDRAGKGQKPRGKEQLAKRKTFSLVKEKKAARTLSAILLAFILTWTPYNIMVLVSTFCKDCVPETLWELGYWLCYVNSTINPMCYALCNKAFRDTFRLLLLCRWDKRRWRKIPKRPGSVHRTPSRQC
- Test Name: Alphascreen Surefire phospho-ERK1/2 functional assay, M1
- Type: cell-based
- Test Parameters: CHO cells stably expressing human M1; phospho-ERK1/2; read-out: pEC50 M1 (converted)
Here the recorded log10 EC50 is given for each entry.
Property: log10 EC50 (log10 of the value in nM)

{"Compound": "C/C=C/C(=O)N1CCCN(C2CCC3(CC2)C(=O)Nc2ccccc23)CC1 (single isomer, unassigned) [4-4 isomer 2]", "Assayed Target": "human muscarinic M1 receptor (Homo sapiens)", "Experimental Result": 2.41}
{"Compound": "CCOC(=O)N[C@H]1CCN(C2CCC(C#N)(c3cccc(Cl)c3)CC2)C1 (single isomer, unassigned) [1-10 Isomer 2]", "Assayed Target": "human muscarinic M1 receptor (Homo sapiens)", "Experimental Result": 1.45}
{"Compound": "CCOC(=O)N1CCCN(C2CCC(C#N)(c3ccc(C(F)(F)F)cn3)CC2)CC1 (mixture of isomers) [3-21 mixture of isomers]", "Assayed Target": "human muscarinic M1 receptor (Homo sapiens)", "Experimental Result": 2.86}
{"Compound": "CCOC(=O)N1CCCN(C2CCC(C#N)(c3ccccc3Cl)CC2)CC1 (mixture of isomers) [3-4 mixture of isomers]", "Assayed Target": "human muscarinic M1 receptor (Homo sapiens)", "Experimental Result": 2.47}
{"Compound": "CCOC(=O)N1CCCN(C2CCC(C#N)(c3cccc(Cl)c3)CC2)CC1 (mixture of isomers) [3-5 mixture of isomers]", "Assayed Target": "human muscarinic M1 receptor (Homo sapiens)", "Experimental Result": 1.92}
{"Compound": "CCOC(=O)N1CC2(CCN(C3CCC4(CC3)C(=O)Nc3ccccc34)C2)C1 (mixture of isomers) [10-1 mixture of isomers]", "Assayed Target": "human muscarinic M1 receptor (Homo sapiens)", "Experimental Result": 1.59}
{"Compound": "N#CC1(c2ccccc2)CCC(N2CCCN(C(=O)OCCF)CC2)CC1 (mixture of isomers) [3-29 mixture of isomers]", "Assayed Target": "human muscarinic M1 receptor (Homo sapiens)", "Experimental Result": 2.73}
{"Compound": "CCOC(=O)N1CC2(CCN(C3CCC(C#N)(c4ccccc4)CC3)CC2)C1 (single isomer, unassigned) [11-1 Isomer 2]", "Assayed Target": "human muscarinic M1 receptor (Homo sapiens)", "Experimental Result": 2.44}
{"Compound": "CCOC(=O)N1CCCN(C2CCC3(CC2)C(=O)Nc2ncc(Cl)cc23)CC1 (single isomer, unassigned) [4-16 isomer 1]", "Assayed Target": "human muscarinic M1 receptor (Homo sapiens)", "Experimental Result": 2.95}
{"Compound": "CCOC(=O)N1CCCN(C2CCC(C#N)(c3ccc(OC)cc3)CC2)CC1 (mixture of isomers) [3-9 mixture of isomers]", "Assayed Target": "human muscarinic M1 receptor (Homo sapiens)", "Experimental Result": 2.06}
{"Compound": "CCOC(=O)N1CCC2(CCN(C3CCC4(CC3)C(=O)N(C(=O)OCC)c3ccccc34)CC2)C1 (single isomer, unassigned) [12-2 isomer 1]", "Assayed Target": "human muscarinic M1 receptor (Homo sapiens)", "Experimental Result": 1.41}
{"Compound": "Cc1ccc2c(c1)NC(=O)C21CCC(N2CCC[C@@H](c3nc(C)no3)C2)CC1 (single isomer, unassigned) [22-4 Isomer 1]", "Assayed Target": "human muscarinic M1 receptor (Homo sapiens)", "Experimental Result": 1.90}
{"Compound": "CCOC(=O)N1CCCN(C2CCC(C#N)(c3ccc(Cl)cc3)CC2)CC1 (mixture of isomers) [3-6 mixture of isomers]", "Assayed Target": "human muscarinic M1 receptor (Homo sapiens)", "Experimental Result": 0.98}

* * *

- Assayed Target: human muscarinic M4 receptor (Homo sapiens, UniProt P08173)
- Construct: expressed in transfected cells
- Sequence (P08173 1-479): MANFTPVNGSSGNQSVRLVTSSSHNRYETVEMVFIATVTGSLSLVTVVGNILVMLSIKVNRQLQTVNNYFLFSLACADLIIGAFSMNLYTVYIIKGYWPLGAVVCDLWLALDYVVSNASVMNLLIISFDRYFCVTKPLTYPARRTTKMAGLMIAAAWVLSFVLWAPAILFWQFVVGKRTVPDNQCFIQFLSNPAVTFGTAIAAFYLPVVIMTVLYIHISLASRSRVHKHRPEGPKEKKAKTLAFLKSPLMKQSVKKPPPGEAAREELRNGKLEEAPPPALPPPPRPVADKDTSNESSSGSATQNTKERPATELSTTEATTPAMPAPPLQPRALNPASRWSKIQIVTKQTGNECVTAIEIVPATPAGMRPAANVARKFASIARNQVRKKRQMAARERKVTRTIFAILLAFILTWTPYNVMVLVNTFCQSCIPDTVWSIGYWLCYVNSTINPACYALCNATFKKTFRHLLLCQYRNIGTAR
- Test Name: Alphascreen Surefire phospho-ERK1/2 functional assay, M4
- Assay type: cell-based
- Test Parameters: CHO cells stably expressing human M4; phospho-ERK1/2; read-out: pEC50 M4 (converted)
This listing pairs compounds with measured EC50.
Property: EC50

{"Compound": "CCOC(=O)N1CCCN(C2CCC3(CC2)C(=O)Nc2cccc(C)c23)CC1 (single isomer, unassigned) [4-8 isomer 2]", "Experimental Result": "97.7 nM"}
{"Compound": "Cc1noc(C2CC3(CCN(C4CCC(C#N)(c5ccc(F)cn5)CC4)C3)C2)n1 (single isomer, unassigned) [21-3 Isomer 3]", "Experimental Result": "> 20000 nM"}
{"Compound": "CCOC(=O)N1CCCN(C2CCC(C#N)(c3ccccc3Cl)CC2)CC1 (mixture of isomers) [3-4 mixture of isomers]", "Experimental Result": "832 nM"}
{"Compound": "CCOC(=O)N[C@H]1CCN(C2CCC(C#N)(c3ccc(F)cn3)CC2)C1 (single isomer, unassigned) [1-14 Isomer 2]", "Experimental Result": "> 20000 nM"}
{"Compound": "CCOC(=O)N[C@H]1CCN(C2CCC(C#N)(c3ccc(Cl)cn3)CC2)C1 (single isomer, unassigned) [1-15 Isomer 2]", "Experimental Result": "> 20000 nM"}
{"Compound": "Cc1ccc2c(c1)NC(=O)C21CCC(N2CCC[C@@H](c3nc(C)no3)C2)CC1 (single isomer, unassigned) [22-4 Isomer 1]", "Experimental Result": "219 nM"}
{"Compound": "CCOC(=O)N[C@@H]1CCN(C2CCC(C#N)(c3ccccc3F)CC2)C1 (single isomer, unassigned) [1-5 Isomer 2]", "Experimental Result": "> 20000 nM"}
{"Compound": "CCOC(=O)N[C@H]1CCN(C2CCC3(CC2)C(=O)Nc2cc(C)ccc23)C1 (single isomer, unassigned) [2-4 isomer 1]", "Experimental Result": "> 15800 nM"}
{"Compound": "CCOC(=O)N1CCCN(C2CCC(C#N)(c3ccc(OCC)cn3)CC2)CC1 (single isomer, unassigned) [3-20 Isomer 2]", "Experimental Result": "> 20000 nM"}
{"Compound": "Cc1ccc2c(c1)C1(CCC(N3CCC[C@@H](c4nc(C)no4)C3)CC1)C(=O)N2 (single isomer, unassigned) [22-3 Isomer 1]", "Experimental Result": "141 nM"}
{"Compound": "CCOC(=O)N1CC2(CCN(C3CCC4(CC3)C(=O)Nc3ccccc34)C2)C1 (mixture of isomers) [10-1 mixture of isomers]", "Experimental Result": "> 20000 nM"}
{"Compound": "N#CC1(c2ccccc2)CCC(N2CC3(CC(c4nc(C(F)(F)F)no4)C3)C2)CC1 (single isomer, unassigned) [20-1 Isomer 2]", "Experimental Result": "126 nM"}
{"Compound": "CCOC(=O)N1CCCN(C2CCC3(CC2)C(=O)Nc2ncc(Cl)cc23)CC1 (single isomer, unassigned) [4-16 isomer 1]", "Experimental Result": "> 20000 nM"}

* * *

- Assayed Target: UniProtKB P11229
- Test Name: Alphascreen Surefire phospho-ERK1/2 functional assay, M1
- Format: cell-based
- Test Parameters: CHO, read-out: M1 % Emax cf. ACh, CHO cells stably expressing human M1; Emax relative to ACh
Property: Emax (%)

{"Molecule": "Cc1ccc2c(c1)C1(CCC(N3CCC[C@@H](c4nc(C)no4)C3)CC1)C(=O)N2 (single isomer, unassigned) [22-3 Isomer 1]", "Experimental Result": 51}
{"Molecule": "CCOC(=O)N[C@H]1CCN(C2CCC3(CC2)C(=O)Nc2cc(C)ccc23)C1 (single isomer, unassigned) [2-4 isomer 1]", "Experimental Result": 65}
{"Molecule": "CCOC(=O)N[C@@H]1CCN(C2CCC(C#N)(c3cccc(F)c3)CC2)C1 (single isomer, unassigned) [1-6 Isomer 2]", "Experimental Result": 116}

* * *

Item-by-item account of EC50
- Assayed Target: human muscarinic M4 receptor (Homo sapiens)
- Construct: expressed in transfected cells
- Test Name: Alphascreen Surefire phospho-ERK1/2 functional assay, M4
- Type: cell-based
- Test Parameters: CHO cells stably expressing human M4; phospho-ERK1/2; read-out: pEC50 M4 (converted)
Property: EC50

{"Molecule": "CCOC(=O)N1CCCN(C2CCC(C#N)(c3ccccc3C)CC2)CC1 (mixture of isomers) [3-7 mixture of isomers]", "Property": "EC50", "Experimental Result": "1700 nM"}
{"Molecule": "CCOC(=O)N[C@H]1CCN(C2CCC3(CC2)C(=O)Nc2cc(F)ccc23)C1 (single isomer, unassigned) [2-7 isomer 2]", "Property": "EC50", "Experimental Result": "> 20000 nM"}
{"Molecule": "COc1ccc2c(c1)C1(CCC(N3CCC4(CC(c5nc(C)no5)C4)C3)CC1)C(=O)N2 (single isomer, unassigned) [26-2 Isomer 3]", "Property": "EC50", "Experimental Result": "> 20000 nM"}
{"Molecule": "Cc1noc(C2CC3(CCN(C4CCC(C#N)(c5ccc(F)cn5)CC4)C3)C2)n1 (single isomer, unassigned) [21-3 Isomer 4]", "Property": "EC50", "Experimental Result": "69.2 nM"}
{"Molecule": "Cc1ccc(C2(C#N)CCC(N[C@@H]3CC[C@H](c4nc(C(F)(F)F)no4)C3)CC2)nc1 (single isomer, unassigned) [28-2 Isomer 2]", "Property": "EC50", "Experimental Result": "955 nM"}
{"Molecule": "Cc1noc(C2CC2CNC2CCC3(CC2)C(=O)Nc2ccccc23)n1 (single isomer, unassigned) [23-1 Isomer 1]", "Property": "EC50", "Experimental Result": "251 nM"}
